tested on: NCI-H226 lung; experiment: NCI tumour cell line growth inhibition, 48 h
Mark label 1 for reported TGI of 30 µM or greater; mark label 0 for anything smaller.

Please review the following examples before continuing.
> print(dat)
                                   compound  assigned.category
1  C[C@]12CCC3c4ccc(O)cc4CCC3C1CC[C@@]2(O)C#Cc1ccc(C#C/C=C\C#Cc2ccccc2N)cc1 (stereo not given in full)            label 1
2  COc1ccc(/C(=N\N=C(N)N)C(c2ccc(OC)cc2)C2OC(=O)c3ccccc32)cc1 (stereo not given)            label 1
3  FC(F)(F)C1(Cl)C(Cl)(c2ccccc2)C1(Cl)c1ccccc1 (stereo not given)            label 0
4  COc1ccc2nc3cc(Cl)ccc3c(NCCCCCN3CCCCC3)c2c1            label 0
5  Cn1cnc([N+](=O)[O-])c1[Se]c1ncnc2nc[nH]c12            label 0
6  CCOC(=O)c1cc2c(c3ccsc13)C1(C)CCC3c4ccc(OC)cc4CCC3C1C2 (stereo not given)            label 1

Form field: TGI at least 30 µM? Entry: O=C(O)CCCn1c(SCc2c(Cl)cccc2Cl)nc2ccsc2c1=O
label 1

Form field: TGI at least 30 µM? Entry: CCN(CC)CCOc1ccc(/C=C2\CC3C4CC=C5C[C@@H](N6CCCC6)CC[C@]5(C)C4CC[C@]3(C)[C@H]2OC(C)=O)cc1OC (stereo not given in full)
label 0

Form field: TGI at least 30 µM? Entry: CN1CCN(CC(=O)Nc2cccc3ccccc23)CC1
label 1

Form field: TGI at least 30 µM? Entry: COc1ccc2cc3[n+](cc2c1O)CCc1cc2c(cc1-3)OCO2
label 1

====

tested on: SK-MEL-5 melanoma; assay: NCI tumour cell line growth inhibition, 48 h; in the data active = GI50 below about 0.43 µM; inactive = the rest
# valid calls are True = active, False = inactive; nothing else

> print(dat)
                                   compound  assigned.category
1  Nc1ccn(C2OC(CO)C3[O][Sn]([c]4ccccc4)([c]4ccccc4)[O]C32)c(=O)n1 (stereo not drawn)              False

For O=C(Nc1cccc(-c2cccc(F)c2)c1)C1CCN(Cc2cccc3cccnc23)CC1 , which call appears in the assay record?
False

For Cc1ccc(C2=C(c3ccc(C)cc3)C3(c4ccc(C)cc4)[C@@H](C#N)[C@H](C#N)C2(c2ccc(C)cc2)S3=O)cc1 (stereo partly drawn) , which call appears in the assay record?
False

For O=C(C[Si](CC(=O)c1cccc(C(F)(F)F)c1)CC(=O)c1cccc(C(F)(F)F)c1)c1cccc(C(F)(F)F)c1 , which call appears in the assay record?
False

For COc1ccc2nc3cc(Cl)ccc3c(NCCCCCN3CCCCC3)c2c1 , which call appears in the assay record?
False

For COC(=O)C1=C(O)[C@H](C(=O)OC)C2(O)[C@@H](C(=O)OC)[C@H]1C[C@@H](c1ccc(OC(=O)n3ccnc3)cc1)[C@@H]2C(=O)OC , which call appears in the assay record?
False

For CC(C)[C@]12O[C@H]1[C@@H]1O[C@]13[C@]1(O[C@H]1C[C@H]1C4=C(CC[C@@]13C)C(=O)OC4)[C@@H]2OC(=O)CN(C)C , which call appears in the assay record?
True

For COc1ccc(S(=O)(=O)Nc2cc(/C=C\c3cc(OC)c(OC)c(OC)c3)cc(OC)c2OC)cc1 , which call appears in the assay record?
True
